target: BRDT (Mus musculus); construct: mBRDT(1) 23–133, first (N-terminal) bromodomain; test: AlphaScreen competition with H4Kac4 peptide (IC50); ITC
Quantity: pIC50
Numbers only, as −log10 of the molar value.

Exam item: Returns the measured pIC50 for the input compound. Input: Cc1sc2c(c1C)C(c1ccc(Cl)cc1)=N[C@@H](CC(=O)OC(C)(C)C)c1nnc(C)n1-2 [(+)-JQ1]
Marked response: 8.00
